Origin of the recorded values: patent EP2100894A1

Biological target: PIk1 (Homo sapiens, UniProt P53350)
Construct: His tag (histidine tag) (N)
Sequence (P53350 whole entry): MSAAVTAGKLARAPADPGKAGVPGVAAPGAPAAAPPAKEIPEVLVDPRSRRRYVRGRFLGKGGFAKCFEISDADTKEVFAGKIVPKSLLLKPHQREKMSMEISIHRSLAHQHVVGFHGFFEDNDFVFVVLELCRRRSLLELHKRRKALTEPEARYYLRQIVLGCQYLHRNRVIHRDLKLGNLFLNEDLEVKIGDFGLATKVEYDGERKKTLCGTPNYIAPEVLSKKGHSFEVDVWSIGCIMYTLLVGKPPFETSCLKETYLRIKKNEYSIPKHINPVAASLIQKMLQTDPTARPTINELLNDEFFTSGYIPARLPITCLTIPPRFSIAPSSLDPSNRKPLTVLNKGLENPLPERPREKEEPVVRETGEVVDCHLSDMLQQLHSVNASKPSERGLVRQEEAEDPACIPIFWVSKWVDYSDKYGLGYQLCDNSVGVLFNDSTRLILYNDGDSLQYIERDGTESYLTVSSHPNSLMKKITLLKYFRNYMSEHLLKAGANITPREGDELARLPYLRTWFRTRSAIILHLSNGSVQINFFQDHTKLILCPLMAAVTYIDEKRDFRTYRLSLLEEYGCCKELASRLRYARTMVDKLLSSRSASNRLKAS
Assay: PIk1 kinase activity inhibition assay (33P incorporation into alpha casein, flash plates)
Conditions: recombinant N-terminally histidine-tagged PIk1, alpha casein as substrate, 100 nM Li-ATP, 80 minutes at 30°C
Items are presented alongside their recorded IC50.

Compound: COc1cc(C(=O)NC2CCN(C)CC2)ccc1Nc1ncc2c(n1)c(-c1cccnc1)c(OCC1CC1)c(=O)n2C
Reported result: < 10 nM

Compound: COc1cc(C(=O)NC2CCN(C)CC2)ccc1Nc1ncc2c(n1)c(-c1ccc(C)cc1)c(OCC1CC1)c(=O)n2C
Reported result: < 10 nM

Compound: C/C=C/c1c(OC)c(=O)n(C)c2cnc(Nc3ccc(C(=O)NCC4CCN(C)CC4)cc3OC)nc12
Reported result: < 100 nM

Compound: C/C=C/c1c(OCC2CC2)c(=O)n(C)c2cnc(Nc3ccc(C(=O)NC4CCN(C)CC4)cc3CC)nc12
Reported result: < 10 nM

Compound: C/C=C/c1c(OCC2CC2)c(=O)n(C)c2cnc(Nc3ccc(C(=O)NC4CCN(C)CC4)cc3OC)nc12
Reported result: < 100 nM

Compound: COc1cc(C(=O)NC2CCN(C)CC2)ccc1Nc1ncc2c(n1)c(C1=CCCC1)c(OCC1CC1)c(=O)n2C
Reported result: < 10 nM

Compound: COc1cc(C(=O)NC2CCN(C)CC2)ccc1Nc1ncc2c(n1)c(-c1ccccc1)c(OC)c(=O)n2C
Reported result: < 100 nM

Compound: C/C=C/c1c(OC)c(=O)n(C)c2cnc(Nc3ccc(C(=O)NC4CCN(CC)CC4)cc3OC)nc12
Reported result: < 1000 nM

Compound: COc1cc(C(=O)NC2CCN(C)CC2)ccc1Nc1ncc2c(cc(OCC3CCCC3)c(=O)n2C)n1
Reported result: < 100 nM

Compound: C#Cc1c(OC)c(=O)n(C)c2cnc(Nc3ccc(C(=O)NC4CCN(C)CC4)cc3OC)nc12
Reported result: < 100 nM

query: Reported IC50 for `COc1cc(C(=O)NC2CCN(C)CC2)ccc1Nc1ncc2c(n1)c(-c1ccc[nH]1)c(OCC1CC1)c(=O)n2C` : what is it?
result: < 10 nM

query: Name the reported IC50 value associated with the compound `CCc1cc(C(=O)NC2CCN(C)CC2)ccc1Nc1ncc2c(n1)c(-c1ccsc1)c(OCC1CC1)c(=O)n2C`
result: < 10 nM

query: GET /values?readout=IC50&item= `COc1cc(C(=O)NCC2CCN(C)CC2)ccc1Nc1ncc2c(n1)c(-c1ccsc1)c(OCC1CC1)c(=O)n2C`
result: < 10 nM
